Reference source for all entries: patent US10975037B2

SYSTEM UNDER TEST: full-length human RORγt (Homo sapiens (Human), UniProt P51449)
Sequence (P51449 other isoform, or with tags, fused parts or gaps): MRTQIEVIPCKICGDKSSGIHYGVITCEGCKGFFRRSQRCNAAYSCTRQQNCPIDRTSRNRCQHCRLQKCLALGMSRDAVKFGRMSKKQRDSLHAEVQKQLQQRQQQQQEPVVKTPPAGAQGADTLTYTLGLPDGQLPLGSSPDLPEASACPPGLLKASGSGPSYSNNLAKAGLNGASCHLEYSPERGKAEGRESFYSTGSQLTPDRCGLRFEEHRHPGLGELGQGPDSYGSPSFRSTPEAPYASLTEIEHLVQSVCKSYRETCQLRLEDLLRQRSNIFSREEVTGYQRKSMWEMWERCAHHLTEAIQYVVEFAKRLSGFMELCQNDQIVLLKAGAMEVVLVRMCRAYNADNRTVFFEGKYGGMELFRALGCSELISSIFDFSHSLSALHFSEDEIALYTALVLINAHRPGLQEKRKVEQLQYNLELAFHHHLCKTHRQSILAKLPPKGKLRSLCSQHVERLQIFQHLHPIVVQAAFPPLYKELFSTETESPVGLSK
TEST PROTOCOL: RORγt (full-length human) reporter assay, conditions A or B, HEK293T cells
Type: cell-based
RUN PARAMETERS: HEK-293T; 2 μM compound concentration; read-out: RORγt (FL) Reporter Assay A or B, % inhibition
READOUT KIND: inhibition at 2 µM

MOLECULE	READOUT KIND	OBSERVED MEASUREMENT
CCn1nc(C(=O)NC[C@]2(O)CC[C@@H](S(C)(=O)=O)CC2)c(Cl)c1-c1ccc(CC(C)C)cc1OC	inhibition at 2 µM	61%
CCn1nc(C(=O)NC[C@]2(O)CC[C@@H](S(C)(=O)=O)CC2)c(Cl)c1-c1c(F)cc(C[C@H](C)C(F)(F)F)cc1F (single isomer, unassigned)	inhibition at 2 µM	69%
CCc1cc(N[C@H](C)C(F)(F)F)ccc1-c1c(Cl)c(C(=O)NC[C@H]2CC[C@H](S(C)(=O)=O)CC2)nn1CC	inhibition at 2 µM	100%
CCn1nc(C(=O)NC[C@]2(O)CC[C@H](S(C)(=O)=O)C[C@H]2O)c(Cl)c1-c1ccc(CC(C)(C)C(F)(F)F)cc1OC(F)F (single isomer, unassigned)	inhibition at 2 µM	95%
CCn1nc(C(=O)NC[C@H]2CC[C@H](S(C)(=O)=O)CC2)c(Cl)c1-c1ccc(N[C@H](C)C(F)(F)F)cc1OC	inhibition at 2 µM	104%
COc1cc(CC(C)C(F)(F)F)ccc1-c1c(Cl)c(C(=O)NC[C@H]2CC[C@H](S(C)(=O)=O)CC2)nn1CCO (stereo partly drawn)	inhibition at 2 µM	96%
CCn1nc(C(=O)NC[C@H]2CC[C@H](S(C)(=O)=O)CC2)c(Cl)c1-c1ccc(N[C@H](C)C(F)(F)F)cc1OC(F)(F)F	inhibition at 2 µM	104%
CCn1nc(C(=O)NC[C@H]2CC[C@H](S(C)(=O)=O)CC2)c(Cl)c1-c1ccc(CC(C)C)cc1OC	inhibition at 2 µM	67%
CCCn1nc(C(=O)NC[C@H]2CC[C@H](S(C)(=O)=O)CC2)c(Cl)c1-c1ccc(N[C@H](C)C(F)(F)F)cc1OC	inhibition at 2 µM	104%
CCn1nc(C(=O)NC[C@]2(CO)CC[C@@H](S(C)(=O)=O)CC2)c(Cl)c1-c1ccc(N[C@H](C)C(F)(F)F)cc1OC (relative stereo)	inhibition at 2 µM	96%
CCn1nc(C(=O)NC[C@H]2CC[C@H](S(C)(=O)=O)CC2)c(Cl)c1-c1ccc(OCC(C)(F)F)cc1OC	inhibition at 2 µM	79%
CCOC(=O)[C@]1(CNC(=O)c2nn(CC)c(-c3ccc(N[C@H](C)C(F)(F)F)cc3OC)c2Cl)CC[C@@H](S(C)(=O)=O)CC1 (relative stereo)	inhibition at 2 µM	76%
CCn1nc(C(=O)NC[C@]2(O)CC[C@@H](S(C)(=O)=O)CC2)c(Cl)c1-c1ccc(CCC(F)(F)F)cc1OC(F)(F)F	inhibition at 2 µM	34%
CCn1nc(C(=O)NC[C@H]2CC[C@H](S(C)(=O)=O)CC2)c(Cl)c1-c1ccc(CCC(F)(F)F)cc1F	inhibition at 2 µM	52%
CCn1nc(C(=O)NC[C@]2(O)CC[C@@H](S(C)(=O)=O)CC2)c(C)c1-c1ccc(CCC(F)(F)F)cc1OC	inhibition at 2 µM	76%
CCn1nc(C(=O)NC[C@H]2CC[C@@H](S(C)(=O)=O)CC2)c(Cl)c1-c1ccc(N[C@H](C)C(F)(F)F)cc1Cl	inhibition at 2 µM	88%
CCn1nc(C(=O)NC[C@H]2CC[C@H](S(C)(=O)=O)CC2)c(Cl)c1-c1ccc(N[C@H](C)C(F)(F)F)cc1	inhibition at 2 µM	93%
CCn1nc(C(=O)NC[C@H]2CC[C@H](S(C)(=O)=O)CC2)c(Cl)c1-c1ccc(N[C@H](C)C(F)(F)F)cc1C(C)C	inhibition at 2 µM	102%
CCn1nc(C(=O)NC[C@]2(O)CC[C@@H](S(C)(=O)=O)CC2)c(Cl)c1-c1ccc(N[C@H](C)C(F)(F)F)cc1OC	inhibition at 2 µM	104%
CCn1nc(C(=O)NC[C@H]2CC[C@H](S(C)(=O)=O)CC2)c(C(C)C)c1-c1ccc(N[C@H](C)C(F)(F)F)cc1OC	inhibition at 2 µM	100%
CCn1nc(C(=O)NCC2(N)CCC(S(C)(=O)=O)CC2)c(Cl)c1-c1ccc(CC(C)C(F)(F)F)cc1OC (stereo not drawn)	inhibition at 2 µM	63%
CCn1nc(C(=O)NC[C@H]2CC[C@H](S(C)(=O)=O)CC2)c(Cl)c1-c1ccc(NC(C(F)(F)F)C(F)(F)F)cc1OC	inhibition at 2 µM	107%
CC(C)(O)Cn1nc(C(=O)NC[C@H]2CC[C@H](S(C)(=O)=O)CC2)c(Cl)c1-c1ccc(CC(C)(C)C(F)(F)F)cc1OC(F)F	inhibition at 2 µM	105%
CCn1nc(C(=O)NC[C@]2(O)CC[C@@H](S(C)(=O)=O)CC2)c(Cl)c1-c1c(F)cc(C[C@@H](C)C(F)(F)F)cc1F (single isomer, unassigned)	inhibition at 2 µM	75%
